Each recorded value in this set is attributed to paper PMC10104839.

Molecular target: T1, AfAgo (Archaeoglobus fulgidus DSM 4304, UniProt O28951 1-427)
T1 sequence: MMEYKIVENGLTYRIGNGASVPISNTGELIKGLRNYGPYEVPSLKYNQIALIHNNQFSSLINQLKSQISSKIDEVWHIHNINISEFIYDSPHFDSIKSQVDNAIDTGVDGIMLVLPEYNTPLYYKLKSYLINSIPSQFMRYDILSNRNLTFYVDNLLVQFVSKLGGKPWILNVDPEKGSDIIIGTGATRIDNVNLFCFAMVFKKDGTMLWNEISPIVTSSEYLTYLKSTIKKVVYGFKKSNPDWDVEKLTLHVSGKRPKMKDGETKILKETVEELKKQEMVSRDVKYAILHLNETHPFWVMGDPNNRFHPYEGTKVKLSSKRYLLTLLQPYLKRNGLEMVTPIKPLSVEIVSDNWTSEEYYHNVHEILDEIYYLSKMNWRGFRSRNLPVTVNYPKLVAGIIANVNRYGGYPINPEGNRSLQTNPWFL
Assay: EMSA; AfAgo pre-loaded with gRNA (1:2), target titrated; no heparin; EMSA: 40 mM Tris-acetate pH 8.4 (25 C), 1 mM EDTA, 100 mM K-acetate, 0.1 mg/ml BSA, 1 mM DTT, 10% glycerol; 5 nM NA (1 nM 32P + 4 nM cold); 10 min at 25 C
Conditions: protein: recombinant; tags: N-terminal His (HisTrap; construct name NHis-Af1318); label: 5'-32P on target; guide nt 1-8 complementary to target 3' end; rest largely unpaired
Below, each of the binders is paired with its reported Kd value.
Readout name: Kd

[[record]]
binder = "gRNA MZ-1480 + target DNA MZ-1560 (8 nt) (DNA:RNA, 5'-phosphate) RNA: AUUGUACACGGCCGAAU DNA: CGGAATATATGTACAAT"
measured_result = "7.5 nM"

[[record]]
binder = "gRNA MZ-1480 + target RNA MZ-1556 (8 nt) (dsRNA, 5'-phosphate) RNA 1: AUUGUACACGGCCGAAU RNA 2: CGGAAUAUAUGUACAAU"
measured_result = "33 nM"

